IC50 reference
# Procedure details: Inhibition of protein A binding to horseradish peroxidase-conjugated human IgG in 20% DMSO/PBS solution by Protein A human IgG competitive ELISA
# Run conditions: read-out: IC50
Write down the numeric answer in nM and omit the unit.

-- ask Report IC50 for `NCCNc1nc(NCCO)nc(Nc2ccc(CCNc3nc(NCCO)nc(Nc4cccc(N)c4)n3)cc2)n1` please.
-- reply 749

-- ask Item under review: `CS(=O)(=O)c1cccc(Nc2nc(NCCO)nc(Nc3ccc(CCNc4nc(NCCO)nc(Nc5cccc(N)c5)n4)cc3)n2)c1` . Reported IC50?
-- reply 192

-- ask # lookup: IC50 of `Nc1cccc(Nc2nc(NCCO)nc(NCCc3ccc(Nc4nc(NCCO)nc(NCCO)n4)cc3)n2)c1`
-- reply 81

-- ask Returns the measured IC50 for the input compound. Input: `Nc1cccc(Nc2nc(NCCO)nc(NCCc3ccc(Nc4nc(NCCO)nc(Nc5cccc(N)c5)n4)cc3)n2)c1`
-- reply 144

-- ask What IC50 value was documented for this compound, `Nc1cccc(Nc2nc(NCCO)nc(NCCc3ccc(Nc4nc(NCCO)nc(Nc5ccc(Cl)cc5)n4)cc3)n2)c1` ?
-- reply 893

###

# Procedure details: Inhibition of protein A binding to horseradish peroxidase-conjugated human IgG in PBS solution by Protein A human IgG competitive ELISA
# Run conditions: read-out: IC50
Quantity kind: IC50 (nM)
Report the figure in nM without appending any unit label.

Take a look at these entries with their results.
CC(C)(CNc1nc(NCCO)nc(Nc2cccc(N)c2)n1)CNc1nc(NCCO)nc(Nc2cccc(N)c2)n1 :: 41
Nc1cccc(Nc2nc(NCCO)nc(NCCc3ccc(Nc4nc(NCCO)nc(NCCO)n4)cc3)n2)c1 :: 94
Nc1cccc(Nc2nc(NCCO)nc(NCCCNc3nc(NCCO)nc(Nc4cccc(N)c4)n3)n2)c1 :: 56
NCCNc1nc(NCCO)nc(Nc2ccc(CCNc3nc(NCCO)nc(Nc4cccc(N)c4)n3)cc2)n1 :: 410
Nc1cccc(Nc2nc(NCCO)nc(NCCc3ccc(Nc4nc(NCCO)nc(Nc5ccc(Cl)cc5)n4)cc3)n2)c1 :: 841
Nc1cccc(Nc2nc(NCCO)nc(NCCCCNc3nc(NCCO)nc(Nc4cccc(N)c4)n3)n2)c1 :: 187

-- ask Looking for the measured IC50 of `Nc1cccc(Nc2nc(NCCO)nc(NCCc3ccc(Nc4nc(NCCc5ccccc5)nc(Nc5cccc(N)c5)n4)cc3)n2)c1` , can you help?
-- reply 449

-- ask Returns the measured IC50 for the input compound. Input: Nc1cccc(Nc2nc(NCCO)nc(NCCc3ccc(Nc4nc(NCC(O)c5cccc(N)c5)nc(Nc5cccc(N)c5)n4)cc3)n2)c1 (configuration not stated)
-- reply 130

-- ask Which measured IC50 value corresponds to `Nc1cccc(Nc2nc(NCCO)nc(NCCc3ccc(Nc4nc(NCCc5ccccc5N)nc(Nc5cccc(N)c5)n4)cc3)n2)c1` ?
-- reply 185

-- ask I am curious: what IC50 value has been reported for `Nc1cccc(Nc2nc(NCCO)nc(NCC(O)CNc3nc(NCCO)nc(Nc4cccc(N)c4)n3)n2)c1` ?
-- reply 56

-- ask Consider the compound shown here: `CN1CCN(c2nc(Nc3ccc(CCNc4nc(NCCO)nc(Nc5cccc(N)c5)n4)cc3)nc(Nc3cccc(N)c3)n2)CC1` What is its recorded IC50?
-- reply 59

-- ask Find the recorded IC50 belonging to `Nc1cccc(Nc2nc(NCCO)nc(NCCNc3nc(NCCO)nc(Nc4cccc(N)c4)n3)n2)c1` and report it.
-- reply 58

-- ask Find the recorded IC50 belonging to `Nc1cccc(CCNc2nc(Nc3ccc(CCNc4nc(NCCO)nc(Nc5cccc(N)c5)n4)cc3)nc(Nc3cccc(N)c3)n2)c1` and report it.
-- reply 119

-- ask // lookup IC50 for `CN(C)c1nc(Nc2ccc(CCNc3nc(NCCO)nc(Nc4cccc(N)c4)n3)cc2)nc(Nc2cccc(N)c2)n1`
-- reply 89

-- ask What value of IC50 has been reported for the following compound? `Nc1cccc(Nc2nc(NCCO)nc(NCCc3ccc(Nc4nc(NCCc5cccc(O)c5)nc(Nc5cccc(N)c5)n4)cc3)n2)c1`
-- reply 118

-- ask Consider the compound shown here: `Nc1cccc(Nc2nc(NCCO)nc(Nc3cccc(Nc4nc(NCCO)nc(Nc5cccc(N)c5)n4)c3)n2)c1` What is its recorded IC50?
-- reply 293

-- ask Endpoint output: IC50 of `Nc1cccc(Nc2nc(NCCO)nc(Nc3ccc(Nc4nc(NCCO)nc(Nc5cccc(N)c5)n4)cc3)n2)c1` . Value?
-- reply 157

-- ask # lookup: IC50 of `Nc1ccc(CCNc2nc(Nc3ccc(CCNc4nc(NCCO)nc(Nc5cccc(N)c5)n4)cc3)nc(Nc3cccc(N)c3)n2)cc1`
-- reply 54

-- ask Requested read-out: IC50. Entry: `CN(C)CCNc1nc(Nc2ccc(CCNc3nc(NCCO)nc(Nc4cccc(N)c4)n3)cc2)nc(Nc2cccc(N)c2)n1`
-- reply 89

-- ask Query (compound): `Nc1cccc(CNc2nc(Nc3ccc(CCNc4nc(NCCO)nc(Nc5cccc(N)c5)n4)cc3)nc(Nc3cccc(N)c3)n2)c1` ; field requested: IC50
-- reply 141

-- ask Entry under review: `CN(C)c1ccc(CCNc2nc(Nc3ccc(CCNc4nc(NCCO)nc(Nc5cccc(N)c5)n4)cc3)nc(Nc3cccc(N)c3)n2)cc1` . Reported IC50?
-- reply 695

-- ask What does the record list as IC50 for `Nc1cccc(Nc2nc(NCCO)nc(NCCOCCNc3nc(NCCO)nc(Nc4cccc(N)c4)n3)n2)c1` ?
-- reply 70

###

# Test system: Low affinity immunoglobulin gamma Fc region receptor III-B (Homo sapiens, UniProt O75015)
# Sequence (O75015 whole entry): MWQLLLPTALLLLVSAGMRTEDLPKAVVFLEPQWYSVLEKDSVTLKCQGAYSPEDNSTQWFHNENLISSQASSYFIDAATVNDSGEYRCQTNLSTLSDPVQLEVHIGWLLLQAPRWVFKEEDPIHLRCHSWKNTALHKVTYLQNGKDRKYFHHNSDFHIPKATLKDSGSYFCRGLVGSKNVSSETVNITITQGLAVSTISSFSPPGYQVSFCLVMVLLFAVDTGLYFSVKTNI
# Procedure details: Inhibition of heat aggregated human IgG binding to human Fc-gamma-R3b
Quantity kind: IC50 (µM)
Quick reminder: number only, in µM, skip the unit.

-- ask Could you share what IC50 was measured for `Nc1ccc(CCNc2nc(Nc3ccc(CCNc4nc(NCCO)nc(Nc5cccc(N)c5)n4)cc3)nc(Nc3cccc(N)c3)n2)cc1` , tested on Low affinity immunoglobulin gamma Fc region receptor III-B (Homo sapiens, UniProt O75015)?
-- reply 57

###

# Procedure details: Inhibition of protein A binding to horseradish peroxidase-conjugated human IgG in PBS solution by Protein A human IgG competitive ELISA
# Run conditions: read-out: IC50
Quantity kind: IC50 (µM)
Write the value in µM as a bare number.

Recorded IC50, per entry:
Nc1cccc(Nc2nc(NCCO)nc(NCCc3ccc(Nc4nc(Nc5cccc(N)c5)nc(NC5CCNC5)n4)cc3)n2)c1 (stereo not drawn) :: 0.233
Nc1cccc(Nc2nc(NCCO)nc(NCCc3ccc(Nc4nc(NCCO)nc(Nc5ccc(F)cc5)n4)cc3)n2)c1 :: 0.361
CS(=O)(=O)c1cccc(Nc2nc(NCCO)nc(Nc3ccc(CCNc4nc(NCCO)nc(Nc5cccc(N)c5)n4)cc3)n2)c1 :: 0.243

-- ask # IC50 lookup, item `Nc1cccc(Nc2nc(NCCO)nc(NCCc3ccc(Nc4nc(NCCO)nc(Nc5cccc(N)c5)n4)cc3)n2)c1`
-- reply 0.084

-- ask What value of measured IC50 is listed for `Nc1cccc(Nc2nc(NCCO)nc(NCCc3ccc(Nc4nc(NCCc5ccc(F)cc5)nc(Nc5cccc(N)c5)n4)cc3)n2)c1` ?
-- reply 0.531

-- ask Look up IC50: `Nc1cccc(Nc2nc(NCCO)nc(NCCc3ccc(Nc4nc(Nc5cccc(N)c5)nc(Nc5cccc(N)c5)n4)cc3)n2)c1`
-- reply 0.056

-- ask // query IC50 value for entry `Nc1cccc(Nc2nc(NCCO)nc(Nc3ccc4c(c3)CCN4c3nc(NCCO)nc(Nc4cccc(N)c4)n3)n2)c1`
-- reply 0.08

-- ask Tell me the measured IC50 of `Nc1cccc(Nc2nc(NCCO)nc(NCCc3ccc(Nc4nc(NCCO)nc(Nc5cccc(F)c5)n4)cc3)n2)c1` , please.
-- reply 0.382

###

# Test system: Low affinity immunoglobulin gamma Fc region receptor II-a (Homo sapiens)
# Sequence (P12318 whole entry): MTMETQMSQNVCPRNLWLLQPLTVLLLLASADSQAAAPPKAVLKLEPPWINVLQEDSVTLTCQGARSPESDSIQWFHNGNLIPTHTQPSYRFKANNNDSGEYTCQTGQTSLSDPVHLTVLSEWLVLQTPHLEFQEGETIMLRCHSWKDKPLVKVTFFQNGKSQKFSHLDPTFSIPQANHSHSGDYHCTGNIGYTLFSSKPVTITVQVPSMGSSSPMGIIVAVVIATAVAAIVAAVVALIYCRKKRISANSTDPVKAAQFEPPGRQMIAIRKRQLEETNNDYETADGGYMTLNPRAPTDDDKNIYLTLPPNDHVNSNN
# Procedure details: Inhibition of heat aggregated human IgG binding to human Fc-gamma-R2a
Quantity kind: IC50 (µM)
Record the value in µM, omitting the unit from your answer.

-- ask Any idea what IC50 came out for `Nc1ccc(CCNc2nc(Nc3ccc(CCNc4nc(NCCO)nc(Nc5cccc(N)c5)n4)cc3)nc(Nc3cccc(N)c3)n2)cc1` on Low affinity immunoglobulin gamma Fc region receptor II-a (Homo sapiens)?
-- reply 12

###

# Procedure details: Inhibition of protein A binding to horseradish peroxidase-conjugated human IgG in 20% DMSO/PBS solution by Protein A human IgG competitive ELISA
# Run conditions: read-out: IC50
Quantity kind: IC50
Field note: include the unit after the figure.

Below are worked cases with known answers.
Nc1cccc(Nc2nc(NCCO)nc(NCCc3ccc(Nc4nc(NCCO)nc(Nc5cccc(F)c5)n4)cc3)n2)c1 :: 209 nM
Nc1cccc(Nc2nc(NCCO)nc(NCCOCCNc3nc(NCCO)nc(Nc4cccc(N)c4)n3)n2)c1 :: 5190 nM

-- ask What measured IC50 goes with `Nc1cccc(Nc2nc(NCCO)nc(NCCc3ccc(Nc4nc(NCCO)nc(Nc5ccc(F)cc5)n4)cc3)n2)c1` ?
-- reply 204 nM
